Target: Vascular endothelial growth factor receptor 2 (Homo sapiens) (UniProt P35968)
Sequence (P35968 whole entry, looked up): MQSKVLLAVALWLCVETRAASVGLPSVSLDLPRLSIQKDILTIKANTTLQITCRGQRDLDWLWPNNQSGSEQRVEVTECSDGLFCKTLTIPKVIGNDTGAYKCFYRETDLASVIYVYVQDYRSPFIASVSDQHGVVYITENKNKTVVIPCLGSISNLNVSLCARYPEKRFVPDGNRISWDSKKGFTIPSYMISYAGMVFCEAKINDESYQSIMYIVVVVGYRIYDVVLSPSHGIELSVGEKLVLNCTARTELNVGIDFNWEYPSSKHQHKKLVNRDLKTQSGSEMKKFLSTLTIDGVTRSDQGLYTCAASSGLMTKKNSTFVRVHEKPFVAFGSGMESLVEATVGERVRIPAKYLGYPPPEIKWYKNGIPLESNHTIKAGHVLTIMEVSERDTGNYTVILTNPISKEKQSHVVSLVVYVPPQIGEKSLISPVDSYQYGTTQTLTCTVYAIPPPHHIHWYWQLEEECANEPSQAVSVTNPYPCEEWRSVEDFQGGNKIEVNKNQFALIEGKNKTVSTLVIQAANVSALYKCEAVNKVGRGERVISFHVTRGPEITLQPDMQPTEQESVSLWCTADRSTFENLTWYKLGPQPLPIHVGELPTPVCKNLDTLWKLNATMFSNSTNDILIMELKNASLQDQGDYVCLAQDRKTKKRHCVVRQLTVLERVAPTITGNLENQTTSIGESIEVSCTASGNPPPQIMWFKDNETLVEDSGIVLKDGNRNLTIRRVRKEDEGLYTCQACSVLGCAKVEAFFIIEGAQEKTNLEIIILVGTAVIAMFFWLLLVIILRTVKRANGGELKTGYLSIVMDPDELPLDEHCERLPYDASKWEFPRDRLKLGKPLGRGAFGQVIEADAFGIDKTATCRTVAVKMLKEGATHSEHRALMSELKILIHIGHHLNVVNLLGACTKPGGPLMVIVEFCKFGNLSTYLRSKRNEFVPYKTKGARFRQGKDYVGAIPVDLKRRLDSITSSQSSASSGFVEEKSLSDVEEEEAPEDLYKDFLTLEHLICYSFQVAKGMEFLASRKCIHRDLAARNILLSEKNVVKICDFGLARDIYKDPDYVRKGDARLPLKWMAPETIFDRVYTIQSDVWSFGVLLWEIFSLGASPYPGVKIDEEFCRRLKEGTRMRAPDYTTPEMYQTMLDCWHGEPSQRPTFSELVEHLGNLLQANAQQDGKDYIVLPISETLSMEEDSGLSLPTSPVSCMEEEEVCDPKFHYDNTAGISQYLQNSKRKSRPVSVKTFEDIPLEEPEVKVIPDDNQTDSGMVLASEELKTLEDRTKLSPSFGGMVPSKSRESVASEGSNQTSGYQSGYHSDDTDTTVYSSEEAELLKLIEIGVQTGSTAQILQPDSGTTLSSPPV
Assay: VEGFR2 inhibitors, primary assay, biochemical, Homo sapiens, LANCE Ultra TR-FRET, NPC library (AID 1117353)
Settings: LANCE Ultra TR-FRET kinase assay; at 20 µM (top of the series)
Activity calls are given as the source filed them. Cut-off read from the data, not from the text of the source: active = inhibition above about 50%; inactive = the rest.
Outcome codes: 1 = active, 0 = inactive

- Structure smiles: "Cc1cc2c(C(C)C)c(O)c(O)c(C=O)c2c(O)c1-c1c(C)cc2c(C(C)C)c(O)c(O)c(C=O)c2c1O"
  Assigned category: 0
- Structure smiles: "Cc1cc(O)c2ccccc2c1O"
  Assigned category: 1
- Structure smiles: "COc1cccc2c1C(=O)c1c(O)c3c(c(O)c1C2=O)C[C@@](O)(C(C)=O)C[C@@H]3O[C@H]1C[C@H](N)[C@H](O)[C@H](C)O1"
  Assigned category: 0
- Structure smiles: "CC[C@]1(O)C[C@@H]2CN(CCc3c([nH]c4ccccc34)[C@@](C(=O)OC)(c3cc4c(cc3OC)N(C)[C@H]3[C@@](O)(C(=O)OC)[C@H](OC(C)=O)[C@]5(CC)C=CCN6CC[C@]43[C@@H]65)C2)C1"
  Assigned category: 0

###

Target: Vascular endothelial growth factor receptor 2 (Homo sapiens)
Assay: VEGFR2 inhibitors, primary assay, biochemical, Homo sapiens, LANCE Ultra TR-FRET, NPC library (AID 1117353)
Conditions: LANCE Ultra TR-FRET kinase assay; at 20 µM (top of the series)
Listing of entries alongside the reported inhibition.

- Compound: "COc1cc(-c2ccc(=O)[nH]n2)ccc1OC(F)F"
  inhibition [%]: -22.3
- Compound: "COC(=O)Nc1nc2ccc(Sc3ccccc3)cc2[nH]1"
  inhibition [%]: 6
- Compound: "C=CC(=O)Nc1cc2c(Nc3ccc(F)c(Cl)c3)ncnc2cc1OCCCN1CCOCC1"
  inhibition [%]: 98.7
- Compound: "Oc1c(Cl)cc(Cl)c2cccnc12"
  inhibition [%]: -23.4
- Compound: "COc1cc(NCc2ccc3nc(N)nc(N)c3c2C)cc(OC)c1OC"
  inhibition [%]: 35.8
- Compound: "COC(=O)c1nc(Cl)c(Cl)nc1N"
  inhibition [%]: 6.09
- Compound: "CC(C)C[C@H](NC(=O)[C@H](Cc1ccccc1)NC(=O)c1cnccn1)B(O)O"
  inhibition [%]: 19
- Compound: "CN(C)c1ccc2nc3ccc(=[N+](C)C)cc-3sc2c1"
  inhibition [%]: -6.83
- Compound: "CCN(CC)CCOc1ccc(/C(=C(\\Cl)c2ccccc2)c2ccccc2)cc1"
  inhibition [%]: -7.53
- Compound: "COc1ccc(-c2nc3ccc(C4=NNC(=O)CC4C)cc3[nH]2)cc1 (configuration not stated)"
  inhibition [%]: -36.5
- Compound: "CCCCCCCCCCCCCC[N+](C)(C)C"
  inhibition [%]: 11.2
- Compound: "CCCCCCCCCCCCCCCC[n+]1ccccc1"
  inhibition [%]: -114
- Compound: "CCCCc1oc2ccccc2c1C(=O)c1cc(I)c(OCCN(CC)CC)c(I)c1"
  inhibition [%]: 22.9
- Compound: "CC(C)(C)C1CCC(CC2=C(O)c3ccccc3C(=O)C2=O)CC1 (configuration not stated)"
  inhibition [%]: -21.1
- Compound: "COc1ccc(-c2ccc3cc(C(=O)O)ccc3c2)cc1C12CC3CC(CC(C3)C1)C2"
  inhibition [%]: 96.3
- Compound: "O=C(Nc1ccc([N+](=O)[O-])cc1Cl)c1cc(Cl)ccc1O"
  inhibition [%]: 5.08
- Compound: "O=C(CCCCCCC(=O)Nc1ccccc1)NO"
  inhibition [%]: -32.6
